These entries and their values trace back to the supplement of paper PMC10567573.

B1: TRIM29 (parent)
chain: FAEKGELRKSIFSESRKPTVSIME

variants of: B1; assay: protein stability index of a GFP-peptide fusion (GPS, HEK-293T) (PSI 1-6); higher = more stable; conditions: c terminus: a fixed tail appended;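 note: lentivirally expressed fusions sorted by FACS into six bins by GFP to DsRed ratio, PSI derived from sequencing read proportions per bin multiplied by bin number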
assay_metric: protein stability index

The cases that follow already have their protein stability index on record.
mutation_code | val
E14H | 2.05
S15H | 1.52
F1M | 3.73
K17F | 2.05
S13K | 2.21

For each entry beneath this line, provide reported protein stability index.
1. I22K
2. K17H
3. K17D
4. G5L

Data returned:
1: 2.31; 2: 2.11; 3: 1.65; 4: 2.37
